target-system: recombinant human PAD2 (human, UniProt Q9Y2J8 1-665)
Sequence (Q9Y2J8 whole entry): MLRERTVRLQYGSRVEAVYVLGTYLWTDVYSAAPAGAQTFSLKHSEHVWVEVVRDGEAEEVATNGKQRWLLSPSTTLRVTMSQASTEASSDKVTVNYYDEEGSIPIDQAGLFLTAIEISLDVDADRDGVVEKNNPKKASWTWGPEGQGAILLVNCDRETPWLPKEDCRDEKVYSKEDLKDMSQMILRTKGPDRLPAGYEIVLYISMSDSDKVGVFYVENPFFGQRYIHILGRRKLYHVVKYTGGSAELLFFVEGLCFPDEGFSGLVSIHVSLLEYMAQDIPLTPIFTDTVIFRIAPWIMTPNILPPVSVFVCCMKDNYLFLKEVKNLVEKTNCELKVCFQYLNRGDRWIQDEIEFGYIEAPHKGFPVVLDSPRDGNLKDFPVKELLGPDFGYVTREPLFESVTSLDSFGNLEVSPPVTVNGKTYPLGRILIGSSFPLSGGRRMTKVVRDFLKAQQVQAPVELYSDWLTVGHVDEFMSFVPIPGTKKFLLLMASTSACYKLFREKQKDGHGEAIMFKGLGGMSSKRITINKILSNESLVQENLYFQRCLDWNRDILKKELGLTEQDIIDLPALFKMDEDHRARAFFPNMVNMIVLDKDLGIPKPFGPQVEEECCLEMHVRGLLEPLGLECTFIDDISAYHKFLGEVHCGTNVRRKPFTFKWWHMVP
experiment: cell-based or functional assay
Numbered stars: 1 amine (or outer) side, 2 acyl side, 3 side chain; on linkers, the order of the positions; unused ones are H or OH. Square brackets hold non-standard residues; d marks the D form. Orn(CA) = ornithine chloroamidine, O(CA), N=C(CCl)NCCC[C@H](N[*:1])C(=O)[*:2]; Orn(fluoroacetimidoyl) = N=C(CF)NCCC[C@H](N)C(=O)O
For each entry below, report its conversion of 0708-30 by PAD2, 100 µM inhibitor value.

INSERT INTO assay_data (binder, result) VALUES
  ('Ac-DSKKHD[Orn(fluoroacetimidoyl)]DFLYSD-NH2 (SMILES CC(=O)N[C@@H](CC(=O)O)C(=O)N[C@@H](CO)C(=O)N[C@@H](CCCCN)C(=O)N[C@@H](CCCCN)C(=O)N[C@@H](Cc1c[nH]cn1)C(=O)N[C@@H](CC(=O)O)C(=O)N[C@@H](CCCNC(=N)CF)C(=O)N[C@@H](CC(=O)O)C(=O)N[C@@H](Cc1ccccc1)C(=O)N[C@@H](CC(C)C)C(=O)N[C@@H](Cc1ccc(O)cc1)C(=O)N[C@@H](CO)C(=O)N[C@@H](CC(=O)O)C(N)=O) [0741-06FA]', '25%');

Hi there! I need conversion of 0708-30 by PAD2, 100 µM inhibitor for each item below, if you can.
1. Ac-FFDSKHFD[Orn(CA)]EWIWSD-NH2 (SMILES CC[C@H](C)[C@H](NC(=O)[C@H](Cc1c[nH]c2ccccc12)NC(=O)[C@H](CCC(=O)O)NC(=O)[C@H](CCCNC(=N)CCl)NC(=O)[C@H](CC(=O)O)NC(=O)[C@H](Cc1ccccc1)NC(=O)[C@H](Cc1c[nH]cn1)NC(=O)[C@H](CCCCN)NC(=O)[C@H](CO)NC(=O)[C@H](CC(=O)O)NC(=O)[C@H](Cc1ccccc1)NC(=O)[C@H](Cc1ccccc1)NC(C)=O)C(=O)N[C@@H](Cc1c[nH]c2ccccc12)C(=O)N[C@@H](CO)C(=O)N[C@@H](CC(=O)O)C(N)=O) [0741-01CA]
2. Ac-FFDSHKLH[Orn(fluoroacetimidoyl)]EWMWSD-NH2 (SMILES CSCC[C@H](NC(=O)[C@H](Cc1c[nH]c2ccccc12)NC(=O)[C@H](CCC(=O)O)NC(=O)[C@H](CCCNC(=N)CF)NC(=O)[C@H](Cc1c[nH]cn1)NC(=O)[C@H](CC(C)C)NC(=O)[C@H](CCCCN)NC(=O)[C@H](Cc1c[nH]cn1)NC(=O)[C@H](CO)NC(=O)[C@H](CC(=O)O)NC(=O)[C@H](Cc1ccccc1)NC(=O)[C@H](Cc1ccccc1)NC(C)=O)C(=O)N[C@@H](Cc1c[nH]c2ccccc12)C(=O)N[C@@H](CO)C(=O)N[C@@H](CC(=O)O)C(N)=O) [0741-04FA]

1. 23%
2. 14%

Values were extracted from patent US20110142868A1.
